Numbers sourced from patent US11225505B2.

So I've got a bunch of molecules here, and I need their Minimum inhibitory concentration values.
Tested on: Pseudomonas aeruginosa ATCC 27853
Type: cell-based
measurement_conditions: ATCC 27853
Where a SMILES comes first, the peptide text is derived from it. Bridges are numbered along the chain shown (N, C = ends). [ ]: non-standard residue; d: D form. The star is where a group is joined. X35 = O=C(c1cc(-c2ccc(Cl)cc2)on1)*; X24 = O=C(c1cccc(C(F)(F)F)n1)*; X11 = Cn1nc(C(=O)*)c2ccccc21; Dab = NCC[C@H](N)C(=O)O; Abu = CC[C@H](N)C(=O)O; Dap = NC[C@H](N)C(=O)O

molecule	Minimum inhibitory concentration
CC[C@@H]1NC(=O)[C@@H](CC(C)C)NC(=O)[C@H](CCN)NC(=O)[C@@H](NC(=O)[C@H](CN)NC(=O)[C@@H](NC(=O)[C@H](CCN)NC(=O)c2cccc(C(F)(F)F)n2)[C@@H](C)O)CCNC(=O)[C@H]([C@@H](C)O)NC(=O)[C@H](CCN)NC(=O)[C@H](CCN)NC1=O [Compound 44] (X24-[Dab]T[Dap][Dab][Dab][dL][Abu][Dab][Dab]T; lactam 4-C)	<0.125 µg/mL
CC[C@@H]1NC(=O)[C@@H](CC(C)C)NC(=O)[C@H](CCN)NC(=O)[C@@H](NC(=O)[C@H](CN)NC(=O)[C@@H](NC(=O)[C@H](CCN)NC(=O)c2cc(-c3ccc(Cl)cc3)on2)[C@@H](C)O)CCNC(=O)[C@H]([C@@H](C)O)NC(=O)[C@H](CCN)NC(=O)[C@H](CCN)NC1=O [Compound 94] (X35-[Dab]T[Dap][Dab][Dab][dL][Abu][Dab][Dab]T; lactam 4-C)	0.5 µg/mL

We next turn to a different molecule, shown below.
Given CC[C@@H]1NC(=O)[C@@H](CC(C)C)NC(=O)[C@H](CCN)NC(=O)[C@@H](NC(=O)[C@H](CN)NC(=O)[C@@H](NC(=O)[C@H](CCN)NC(=O)c2nn(C)c3ccccc23)[C@@H](C)O)CCNC(=O)[C@H]([C@@H](C)O)NC(=O)[C@H](CCN)NC(=O)[C@H](CCN)NC1=O [Compound 51] (X11-[Dab]T[Dap][Dab][Dab][dL][Abu][Dab][Dab]T; lactam 4-C) , state its recorded Minimum inhibitory concentration.
0.25 µg/mL
